settings: in n-heptane, 303.15 K
MEASURE: solubility (mole fraction)
Output spec: single numeric token, no unit.

// query Reported solubility (mole fraction), compound NC(=O)[C@@H]1CCCN1 : ____
// result 0.00131

---

details: in n-propanol, 283.15 K
MEASURE: solubility (mole fraction)
Output spec: single numeric token, no unit.

// query Reported solubility (mole fraction), molecule NC(=O)[C@@H]1CCCN1 : ____
// result 0.0597

---

conditions: in THF, 278.15 K
MEASURE: solubility (mole fraction)
Output spec: single numeric token, no unit.

// query Reported solubility (mole fraction), compound NC(=O)[C@@H]1CCCN1 : ____
// result 0.0621

---

settings: in THF, 283.15 K
MEASURE: solubility (mole fraction)
Output spec: single numeric token, no unit.

// query Reported solubility (mole fraction), compound NC(=O)[C@@H]1CCCN1 : ____
// result 0.075

---

conditions: in cyclohexane, 318.15 K
MEASURE: solubility (mole fraction)
Output spec: single numeric token, no unit.

// query Reported solubility (mole fraction), compound NC(=O)[C@@H]1CCCN1 : ____
// result 0.0017

---

details: in ethyl acetate, 318.15 K
MEASURE: solubility (mole fraction)
Output spec: single numeric token, no unit.

// query Reported solubility (mole fraction), compound NC(=O)[C@@H]1CCCN1 : ____
// result 0.121

---

settings: in isopropanol, 303.15 K
MEASURE: solubility (mole fraction)
Output spec: single numeric token, no unit.

// query Reported solubility (mole fraction), compound NC(=O)[C@@H]1CCCN1 : ____
// result 0.153

---

conditions: in n-heptane, 278.15 K
MEASURE: solubility (mole fraction)
Output spec: single numeric token, no unit.

// query Reported solubility (mole fraction), molecule NC(=O)[C@@H]1CCCN1 : ____
// result 0.00025

---

details: in isopropanol, 313.15 K
MEASURE: solubility (mole fraction)

// query Reported solubility (mole fraction), molecule NC(=O)[C@@H]1CCCN1 : ____
// result 0.23

---

details: in cyclohexane, 293.15 K
MEASURE: solubility (mole fraction)
Output spec: single numeric token, no unit.

// query Reported solubility (mole fraction), compound NC(=O)[C@@H]1CCCN1 : ____
// result 0.00022

---

settings: in acetonitrile, 298.15 K
MEASURE: solubility (mole fraction)
Output spec: single numeric token, no unit.

// query Reported solubility (mole fraction), compound NC(=O)[C@@H]1CCCN1 : ____
// result 0.0951

---

settings: in n-hexane, 298.15 K
MEASURE: solubility (mole fraction)
Output spec: single numeric token, no unit.

// query Reported solubility (mole fraction), compound NC(=O)[C@@H]1CCCN1 : ____
// result 0.00032

---

conditions: in isopropanol, 323.15 K
MEASURE: solubility (mole fraction)

// query Reported solubility (mole fraction), compound NC(=O)[C@@H]1CCCN1 : ____
// result 0.355

---

conditions: in acetone, 283.15 K
MEASURE: solubility (mole fraction)
Output spec: single numeric token, no unit.

// query Reported solubility (mole fraction), compound NC(=O)[C@@H]1CCCN1 : ____
// result 0.078

---

settings: in ethyl acetate, 293.15 K
MEASURE: solubility (mole fraction)
Output spec: single numeric token, no unit.

// query Reported solubility (mole fraction), compound NC(=O)[C@@H]1CCCN1 : ____
// result 0.0315
